The origin of these recorded values is PubChem BioAssay AID1963862.

Test system: KRAS patient-derived spheroids with HUVEC/MSC, viability;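 note: spheroids exposed to agents for seven days before readout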
Test: Anticancer human tumor 941728-121-R-J1-PDC patient-derived lung adenocarcinoma cell line growth inhibition [KRAS2]
Settings: second compound 10 µM; first compound 1 µM; hits give low values
Entries whose viability, T/C is below 20% take Satisfied; entries at or above 20% take Not satisfied.

{"Compound": "COC(=O)c1ccc2c(C(=Nc3ccc(N(C)C(=O)CN4CCN(C)CC4)cc3)c3ccccc3)c(O)[nH]c2c1 + COc1cc2nc(C)nc(NC(C)c3cc(N)cc(C(F)(F)F)c3)c2cc1OC1CCOC1", "Category": "Satisfied"}
{"Compound": "CC1(C)CCC(CN2CCN(c3ccc(C(=O)NS(=O)(=O)c4ccc(NCC5CCOCC5)c([N+](=O)[O-])c4)c(Oc4cnc5[nH]ccc5c4)c3)CC2)=C(c2ccc(Cl)cc2)C1 + COc1cc2nc(C)nc(NC(C)c3cc(N)cc(C(F)(F)F)c3)c2cc1OC1CCOC1", "Category": "Satisfied"}
{"Compound": "COC(=O)c1ccc2c(C(=Nc3ccc(N(C)C(=O)CN4CCN(C)CC4)cc3)c3ccccc3)c(O)[nH]c2c1 + CC1OCC2(CCN(c3cnc(Sc4ccnc(N)c4Cl)c(N)n3)CC2)C1N", "Category": "Satisfied"}
{"Compound": "CCNC(=O)CC1N=C(c2ccc(Cl)cc2)c2cc(OC)ccc2-n2c(C)nnc21 (configuration not stated) + CNCc1ccccc1-c1csc(C(C)Nc2nc(C)nc3cc(OC)c(OC)cc23)c1", "Category": "Satisfied"}
{"Compound": "CC(C)NCC(C(=O)N1CCN(c2ncnc3c2C(C)CC3O)CC1)c1ccc(Cl)cc1 (configuration not stated) + C=CC(=O)N1CCN(c2nc(=O)n(-c3c(C)ccnc3C(C)C)c3nc(-c4c(O)cccc4F)c(F)cc23)C(C)C1", "Category": "Satisfied"}
{"Compound": "CCN1CCN(Cc2ccc(Nc3ncc(F)c(-c4cc(F)c5nc(C)n(C(C)C)c5c4)n3)nc2)CC1 + CNCc1ccccc1-c1csc(C(C)Nc2nc(C)nc3cc(OC)c(OC)cc23)c1", "Category": "Satisfied"}
{"Compound": "CC(=O)OC12COC1CC(O)C1(C)C(=O)C(O)C3=C(C)C(OC(=O)C(O)C(NC(=O)OC(C)(C)C)c4ccccc4)CC(O)(C(OC(=O)c4ccccc4)C21)C3(C)C (configuration not stated) + COc1cc2nc(C)nc(NC(C)c3cc(N)cc(C(F)(F)F)c3)c2cc1OC1CCOC1", "Category": "Not satisfied"}
{"Compound": "COc1cc(Nc2ncc3c(n2)-c2ccc(Cl)cc2C(c2c(F)cccc2OC)=NC3)ccc1C(=O)O + C=CC(=O)N1CCN(c2nc(=O)n(-c3c(C)ccnc3C(C)C)c3nc(-c4c(O)cccc4F)c(F)cc23)C(C)C1", "Category": "Not satisfied"}
{"Compound": "O=C(c1cc(Cc2n[nH]c(=O)c3ccccc23)ccc1F)N1CCN(C(=O)C2CC2)CC1 + CNCc1ccccc1-c1csc(C(C)Nc2nc(C)nc3cc(OC)c(OC)cc23)c1", "Category": "Satisfied"}
{"Compound": "CC1COCCN1c1cc(-c2ccnn2C)c2ccnc(-c3ccn[nH]3)c2n1 (configuration not stated) + CNCc1ccccc1-c1csc(C(C)Nc2nc(C)nc3cc(OC)c(OC)cc23)c1", "Category": "Satisfied"}
{"Compound": "CC(C)NCC(C(=O)N1CCN(c2ncnc3c2C(C)CC3O)CC1)c1ccc(Cl)cc1 (configuration not stated) + CC1OCC2(CCN(c3cnc(Sc4ccnc(N)c4Cl)c(N)n3)CC2)C1N", "Category": "Satisfied"}
{"Compound": "CC(=O)OC12COC1CC(O)C1(C)C(=O)C(O)C3=C(C)C(OC(=O)C(O)C(NC(=O)OC(C)(C)C)c4ccccc4)CC(O)(C(OC(=O)c4ccccc4)C21)C3(C)C (configuration not stated) + CC1OCC2(CCN(c3cnc(Sc4ccnc(N)c4Cl)c(N)n3)CC2)C1N", "Category": "Not satisfied"}
